- Tested on: Melan-a cells, that is, mouse melanocytes
- TEST_DETAILS: Melanin production inhibition by biarylamide derivatives in melan-a cells (Example 2-2)
- Type: cell-based
- REPORTED_CONDITIONS: 30 mM derivative, 10 μl per day for 3 days, final concentration 300 μM, absorbance 400 nm
Measured Reduction rate of melanin(%) values are reported for all entries that follow.

Completed entries (count: 3):
Report Reduction rate of melanin(%) for COC(=O)c1ccccc1NC(=O)c1ccc(OC)cc1 [A12/B6, methyl 2-(4-methoxybenzamido)benzoate] please.
39.0%

Report Reduction rate of melanin(%) for COC(=O)c1ccc(NC(=O)c2cccc(C)c2)cc1 [A14/B2, Methyl 4-(3-methylbenzamido)benzoate] please.
30.6%

Report Reduction rate of melanin(%) for Cc1ccc(NC(=O)c2ccc(C)cc2)cc1 [A2/B3, 4-methyl-N-p-tolylbenzamide] please.
8.6%

Could you now consider this next compound?
Report Reduction rate of melanin(%) for CCc1ccc(C(=O)Nc2cc(C)cc(C)c2)cc1 [A3/B4, N-(3,5-dimethylphenyl)-4-ethylbenzamide] please.
36.5%
